- Protocol Notes: Mean pharmacokinetic parameters for Pamidronate after intravenous infusion of 30, 60 and 90 mg of Pamidronate disodium for 4 hours and 90 mg for 24 hours in cancer patients, 6 in each group.
- Assay type: ADME, organism-based
- Design: dose 90 mg, dose 30 mg, dose 60 mg, route iv
- Test Settings: human, in vivo; dose 30 mg, dosed compound id 8, dosed compound name PAMIDRONATE DISODIUM, gender male and female, regimen Single dose, route iv, study dosing duration 4 hours, tissue Plasma; read-out: CL_renal
Property: CL renal (mL/min)
The figure you give is taken to be in mL/min; do not add the unit.

Quick note, CL renal for NCCC(O)(P(=O)([O-])O)P(=O)([O-])O.[Na+].[Na+] landed at 58

---

- Protocol Notes: Mean pharmacokinetic parameters for Pamidronate after intravenous infusion of 30, 60 and 90 mg of Pamidronate disodium for 4 hours and 90 mg for 24 hours in cancer patients, 6 in each group.
- Type: ADME, organism-based
- Design: dose 90 mg, dose 30 mg, dose 60 mg, route iv
- Test Settings: human, in vivo, iv; at 30 mg, dosed compound id 8, dosed compound name PAMIDRONATE DISODIUM, gender male and female, regimen Single dose, route iv, study dosing duration 4 hours, tissue Urine; read-out: Excretion
Property: dose excreted (%)
# output: bare number, implied unit %

Data point: NCCC(O)(P(=O)([O-])O)P(=O)([O-])O.[Na+].[Na+] ; dose excreted = 43.9
